# TESTED ON: human TLR7 (Homo sapiens (Human), UniProt Q9NYK1)
# Sequence (Q9NYK1 27-1049): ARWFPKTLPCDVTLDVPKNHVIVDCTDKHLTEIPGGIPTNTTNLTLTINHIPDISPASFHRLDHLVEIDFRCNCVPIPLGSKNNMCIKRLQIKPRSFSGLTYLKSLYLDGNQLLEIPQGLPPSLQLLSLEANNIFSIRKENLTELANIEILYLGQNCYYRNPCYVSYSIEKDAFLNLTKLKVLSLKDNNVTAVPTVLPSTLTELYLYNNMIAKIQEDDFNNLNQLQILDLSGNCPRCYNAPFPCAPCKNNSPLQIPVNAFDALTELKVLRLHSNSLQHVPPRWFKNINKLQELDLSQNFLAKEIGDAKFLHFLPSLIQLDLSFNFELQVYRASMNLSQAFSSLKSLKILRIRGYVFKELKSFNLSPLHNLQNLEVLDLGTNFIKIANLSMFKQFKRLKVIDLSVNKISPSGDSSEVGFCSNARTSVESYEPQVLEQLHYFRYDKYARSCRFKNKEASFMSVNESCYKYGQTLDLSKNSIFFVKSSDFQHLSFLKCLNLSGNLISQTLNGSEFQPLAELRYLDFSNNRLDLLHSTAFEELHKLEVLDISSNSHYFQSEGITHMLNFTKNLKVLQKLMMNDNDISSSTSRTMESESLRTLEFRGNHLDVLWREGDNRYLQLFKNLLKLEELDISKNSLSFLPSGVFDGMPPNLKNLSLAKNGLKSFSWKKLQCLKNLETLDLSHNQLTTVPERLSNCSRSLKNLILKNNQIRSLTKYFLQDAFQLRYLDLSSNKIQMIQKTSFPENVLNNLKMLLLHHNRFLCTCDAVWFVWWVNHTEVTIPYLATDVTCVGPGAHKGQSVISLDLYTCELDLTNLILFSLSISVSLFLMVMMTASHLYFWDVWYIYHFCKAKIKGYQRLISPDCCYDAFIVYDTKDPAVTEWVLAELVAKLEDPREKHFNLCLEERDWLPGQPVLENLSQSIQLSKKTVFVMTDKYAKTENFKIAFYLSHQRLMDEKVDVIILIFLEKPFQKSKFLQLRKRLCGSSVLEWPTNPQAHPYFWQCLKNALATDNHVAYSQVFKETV
# TEST NAME: Test for evaluating the inhibition of the activation of human TLR7 (SEAP reporter, TLR7/NF-κB/SEAPorter HEK293 cell)
# EXPERIMENTAL CONDITIONS: R-848 200 nmol/L, SEAP reporter
PROPERTY NAME: IC50 (nM)

Use the examples below as a reference point.
CCCCOc1nc(N)c2nc(-c3cncnc3)n(Cc3ccccc3)c2n1 ... 1400
CCOc1nc(C)c2nc(-c3cncc(F)c3)n(Cc3ccc(CN4C[C@@H]5C[C@H]4CN5CC)cc3)c2n1 ... 7
CCOc1nc(N)c2nc(-c3cncc(F)c3)n(Cc3ccc(CN4CC(F)(F)C4)cc3)c2n1 ... 56

(a) COc1nc(C)c2nc(-c3cncc(F)c3)n(Cc3ccc(OCCCN(C)C)cc3F)c2n1
(b) CCCCOc1nc(N)c2nc(-c3cnn(C)c3)n(Cc3ccccc3)c2n1
Exercise: Please compare: a and b . Report which one has the smaller IC50 value. Kindly state the label of the option you pick.
Solution: a

(P) COc1nc(C)c2nc(-c3cncc(F)c3)n(Cc3ccc(OCC4CNC4)cc3F)c2n1
(Q) COc1nc(C)c2nc(-c3cncc(F)c3)n(Cc3ccc(CN4C[C@@H]5C[C@H]4CN5C)cc3)c2n1
(R) COCCOc1nc(N)c2nc(-c3cncc(F)c3)n(Cc3ccccc3)c2n1
(S) COCCOc1nc(N)c2nc(-c3cncc(F)c3)n(Cc3cccc(CN(C)C)c3)c2n1
Exercise: Reorder: IC50, max to min. Please write the labels in the order that was asked for.
Solution: R, S, P, Q

(I) CCOc1nc(C)c2nc(-c3cncc(F)c3)n(Cc3cnn(CC4CCCN(C)C4)c3)c2n1 (stereo not shown) [Example 277]
(II) CCOc1nc(C)c2nc(-c3cncc(F)c3)n(Cc3cnn(CC4CCN(C)C4)c3)c2n1 (stereo not shown) [Example 278]
(III) CCOc1nc(C)c2nc(-c3cncc(F)c3)n(Cc3ccc(C4=CN5CCC4CC5)cn3)c2n1
(IV) CCOc1nc(C)c2nc(-c3cncc(F)c3)n(Cc3cnn(CC4CCNC4)c3)c2n1 (stereo not shown) [Example 270]
(V) CCCCOc1nc(N)c2nc(-c3cccnc3)n(Cc3cccnc3)c2n1
Exercise: Endpoint returns the given compounds ordered by ascending IC50. Please write the labels in the order that was asked for.
Solution: I, II, IV, III, V

* * *

# TESTED ON: human TLR7 (Homo sapiens (Human))
# TEST NAME: Test for evaluating the inhibition of the activation of human TLR7 (SEAP reporter, TLR7/NF-κB/SEAPorter HEK293 cell)
# EXPERIMENTAL CONDITIONS: R-848 200 nmol/L, SEAP reporter
PROPERTY NAME: IC50 (nM)

(A) CCCCOc1nc(C)c2nc(-c3cncc(OC)c3)n(Cc3ccccc3)c2n1 [Example 142]
(B) COc1nc(C)c2nc(-c3cncc(F)c3)n(Cc3cnn(C)c3)c2n1 [Example 243]
Exercise: Out of A and B , name the one with the higher IC50. Kindly state the label of the option you pick.
Solution: A

(a) CCc1nc(N)c2nc(-c3cncc(F)c3)n(Cc3ccc(CN(C)C)cc3)c2n1 [Example 157]
(b) CCOc1nc(N)c2nc(-c3cncc(F)c3)n(Cc3ccc(CN4CC(C#N)C4)cc3)c2n1 [Example 103]
Exercise: Please compare: a and b . Report which one has the smaller IC50 value. Kindly state the label of the option you pick.
Solution: b
(b: 1600 nM, a: 8900 nM)

(P) CCOc1nc(N)c2nc(-c3cncc(F)c3)n(Cc3ccc(N4CCN(C)CC4)cc3)c2n1 [Example 68]
(Q) CCOC1CN(Cc2ccc(Cn3c(-c4cncc(F)c4)nc4c(C)nc(OC)nc43)c(F)c2)C1 [Example 261]
(R) CCOc1nc(N)c2nc(-c3cncc(F)c3)n(Cc3ccc(C4CCN(C(=O)CN(C)C)CC4)cc3)c2n1 [Example 148]
(S) COc1nc(C)c2nc(-c3cncc(C#N)c3)n(Cc3ccc(C4CCNCC4)cc3F)c2n1 [Example 343]
Exercise: Endpoint returns the given compounds ordered by ascending IC50. Please write the labels in the order that was asked for.
Solution: R, S, P, Q
